Assay: in vitro
Conditions: human, Caco-2, pH 7.4
Measure: Papp A→B (×10⁻⁶ cm/s)

- Compound: "C[C@H]1O[C@@H](O[C@H]2[C@@H](O)C[C@H](O[C@H]3[C@@H](O)C[C@H](O[C@H]4CC[C@@]5(C)[C@H](CC[C@@H]6[C@@H]5C[C@@H](O)[C@]5(C)[C@@H](C7=CC(=O)OC7)CC[C@]65O)C4)O[C@@H]3C)O[C@@H]2C)C[C@H](O)[C@@H]1O [Digoxin]"
  Observed Measurement: 1.94

----------
Test: Caco-2 bidirectional assay, effect of piperine on permeability of dolutegravir
Details: human, Caco-2, pH 7.4

- Compound: "C[C@@H]1CCO[C@H]2Cn3cc(C(=O)NCc4ccc(F)cc4F)c(=O)c(O)c3C(=O)N12 [Dolutegravir]"
  Papp A→B at 120 min [×10⁻⁶ cm/s]: 40.2
- Compound: "C[C@H]1O[C@@H](O[C@H]2[C@@H](O)C[C@H](O[C@H]3[C@@H](O)C[C@H](O[C@H]4CC[C@@]5(C)[C@H](CC[C@@H]6[C@@H]5C[C@@H](O)[C@]5(C)[C@@H](C7=CC(=O)OC7)CC[C@]65O)C4)O[C@@H]3C)O[C@@H]2C)C[C@H](O)[C@@H]1O [Digoxin]"
  Papp A→B at 120 min [×10⁻⁶ cm/s]: 4.5
